Consider the following binders; for each one, report its Response.
- ASSAY SYSTEM: cyno MSLN (Macaca fascicularis)
- METHOD DESCRIPTION: BLI (Octet), bsAb in 1+1 Fab-scFv-Fc format

Examples with their reported Response follow.
>>> assay_value("XENP31701 (bispecific antibody, part only; not given: anti-CD3 scFv-Fc arm, constant regions, V domains shown, not shown: another chain or arm of the molecule; a dimerising Fc or GST; small tags and cut ends) VH: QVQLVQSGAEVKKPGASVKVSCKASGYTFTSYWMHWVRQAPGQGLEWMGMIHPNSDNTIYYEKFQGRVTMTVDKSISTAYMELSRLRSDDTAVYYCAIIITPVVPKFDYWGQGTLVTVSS VL: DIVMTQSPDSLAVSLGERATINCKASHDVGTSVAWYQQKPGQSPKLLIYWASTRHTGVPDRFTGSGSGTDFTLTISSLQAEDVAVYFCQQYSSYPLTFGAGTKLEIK")
0.737
>>> assay_value("XENP32553 (bispecific antibody, part only; not given: anti-CD3 scFv-Fc arm, constant regions, V domains shown, not shown: another chain or arm of the molecule; a dimerising Fc or GST; small tags and cut ends) VH: QVQLVQSGAEVKKPGASVKVSCKASGYTFTSYWMHWVRQAPGQGLEWMGMINPNSDNTIYYEKFQGRVTMTVDKSISTAYMELSRLRSDDTAVYYCAIIITPVVPKFDYWGQGTLVTVSS VL: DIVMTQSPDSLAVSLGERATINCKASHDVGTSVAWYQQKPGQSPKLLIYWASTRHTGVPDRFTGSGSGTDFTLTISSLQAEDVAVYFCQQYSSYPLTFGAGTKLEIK")
1.06

Provide reported Response for each item, in the same order as listed.
1. XENP32557 (bispecific antibody, part only; not given: anti-CD3 scFv-Fc arm, constant regions, V domains shown, not shown: another chain or arm of the molecule; a dimerising Fc or GST; small tags and cut ends) VH: QVQLVQSGAEVKKPGASVKVSCKASGYTFTSYWMHWVRQAPGQGLEWMGMIHPNSDNTIYYEKFQGRVTMTVDKSISTAYMELSRLRSDDTAVYYCAIIISPVVPKFDYWGQGTLVTVSS VL: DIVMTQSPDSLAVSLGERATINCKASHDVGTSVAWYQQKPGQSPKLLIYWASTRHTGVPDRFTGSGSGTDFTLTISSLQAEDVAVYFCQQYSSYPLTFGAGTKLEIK
2. XENP32559 (bispecific antibody, part only; not given: anti-CD3 scFv-Fc arm, constant regions, V domains shown, not shown: another chain or arm of the molecule; a dimerising Fc or GST; small tags and cut ends) VH: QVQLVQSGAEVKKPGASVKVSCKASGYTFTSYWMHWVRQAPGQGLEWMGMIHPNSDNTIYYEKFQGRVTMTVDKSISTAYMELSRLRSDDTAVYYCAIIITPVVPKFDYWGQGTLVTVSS VL: DIVMTQSPDSLAVSLGERATINCKSSHDVGTSVAWYQQKPGQSPKLLIYWASTRHTGVPDRFTGSGSGTDFTLTISSLQAEDVAVYFCQQYSSYPLTFGAGTKLEIK

Result:
1: 1.09; 2: 1.04

Source listed as patent US20230340128A1.
